Origin of measurements: ChEMBL document CHEMBL1156368

# protocol-text: Growth inhibition of mouse 3T3 cells
# Type: cell-based
# assay-conditions: NIH3T3 cells
experimental-endpoint: GI50 (µg/mL)
Value expressed in µg/mL; do not type the unit.

// solved cases for GI50 follow
INSERT INTO assay_data (molecule, units_text, experimental_result) VALUES
  ('CC(C)=CCC[C@](C)(O)[C@@H]1CC=C(C)CC1 [LEVOMENOL]', 'µg/mL', 84),
  ('CC1=CC[C@@H](C(C)(C)O)CC1 [ALPHA-TERPINEOL]', 'µg/mL', 17);

Please find the next molecule below.
What does the data say about its GI50? Entry: CC(C)=CCC[C@](C)(O)[C@H]1CC=C(C)CC1 8
